Tested on: HK-2 cells
Experiment: In vitro renal cell toxicity assay (HK-2)
Type: cell-based
Where a SMILES comes first, the peptide text is derived from it. Bridges are numbered along the chain shown (N, C = ends). [ ]: non-standard residue; d: D form. The star is where a group is joined. X2 = NC[C@@H](CC(=O)*)c1cccc(-c2ccccc2)c1; X8 = NC[C@@H](CC(=O)*)Cc1cccc(Cl)c1; X10 = Cc1cccc([C@@H](CN)CC(=O)*)c1; Dab = NCC[C@H](N)C(=O)O; Abu = CC[C@H](N)C(=O)O; Dap = NC[C@H](N)C(=O)O
assay-readout: HK-2 rel to PMB
A bare number is all that is needed in reply.

Solved entries:
CC(C)C[C@@H]1NC(=O)[C@@H](Cc2ccccc2)NC(=O)[C@H](CCN)NC(=O)[C@@H](NC(=O)[C@H](CN)NC(=O)[C@@H](NC(=O)C[C@H](CN)Cc2cccc(Cl)c2)[C@@H](C)O)CCNC(=O)[C@H]([C@@H](C)O)NC(=O)[C@H](CCN)NC(=O)[C@H](CCN)NC1=O [Example 11] (X8-T[Dap][Dab][Dab][dF]L[Dab][Dab]T; lactam 3-C) = 5.2
CC[C@@H]1NC(=O)[C@@H](CC(C)C)NC(=O)[C@H](CCN)NC(=O)[C@@H](NC(=O)[C@H](CN)NC(=O)[C@@H](NC(=O)C[C@H](CN)c2cccc(-c3ccccc3)c2)[C@@H](C)O)CCNC(=O)[C@H]([C@@H](C)O)NC(=O)[C@H](CCN)NC(=O)[C@H](CCN)NC1=O [Example 24] (X2-T[Dap][Dab][Dab][dL][Abu][Dab][Dab]T; lactam 3-C) = 21.8

Ask: Consider the compound shown here: Cc1cccc([C@@H](CN)CC(=O)N[C@H](C(=O)N[C@@H](CN)C(=O)N[C@H]2CCNC(=O)[C@H]([C@@H](C)O)NC(=O)[C@H](CCN)NC(=O)[C@H](CCN)NC(=O)[C@H](CC(C)C)NC(=O)[C@@H](Cc3ccccc3)NC(=O)[C@H](CCN)NC2=O)[C@@H](C)O)c1 [Example 21] (X10-T[Dap][Dab][Dab][dF]L[Dab][Dab]T; lactam 3-C) What is its recorded HK-2 rel to PMB?
Result: 26.7

Reference source for all entries: patent US12528837B2
